B1: VAMP4 (parent)
chain: IMALVAAILLLVIIILIVMKYRT

# Variants of: B1
# PROCEDURE_SUMMARY: protein stability index of a GFP-peptide fusion (GPS, HEK-293T) (PSI 1-6); higher = more stable;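 also: lentivirally expressed fusions sorted by FACS into six bins by GFP to DsRed ratio, PSI derived from sequencing read proportions per bin multiplied by bin number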
# CONDITION: c terminus: native
OBSERVATION_TYPE: protein stability index
Could you keep your reply to the number by itself?

Guide cases for protein stability index, answers given:
mutation_code=K20Q test_value=2.82
mutation_code=M2A test_value=2.73
mutation_code=I1G test_value=3.11

## Input Indicate the recorded protein stability index value for this variant: I14Y
## Output 3.26

## Input Please indicate protein stability index recorded for M19W
## Output 3.11

## Input Give the value of protein stability index reported for the following: L10A
## Output 2.87

## Input Report measured protein stability index; entry is V12Y
## Output 2.47

## Input Provide one value: measured protein stability index of L4D
## Output 2.9
